Attribution: patent US6362175B1

# test-method-notes: Absorption spectra (Soret and Q bands)
# Type: physicochemical
# assay-context: solvent DMF
# Protocol: Absorption spectra were recorded on a Beckman DU-64 spectrophotometer. Emission spectra (fluorescence and phosphorescence) were recorded using an AMINCO SPF-500C spectrofluorimeter. ^1H NMR spectra were recorded using a Brucker 300 MHz instrument. Phosphorescence lifetime measurements were performed using a light guide phosphorimeter designed by applicants. […]
readout-name: Q-band (nm)
Could you give me the number in nm? Just the number is fine.

// below: answered compounds
>>> measured_result("c1ccc(C2=C3N=C(C(c4ccccc4)=c4c5ccccc5c5[n]4[Pt][n]4c2c2ccccc2c4C(c2ccccc2)=C2N=C(C=5c4ccccc4)c4ccccc42)c2ccccc23)cc1 [PtTPhTBP]")
630
>>> measured_result("[Zn].c1ccc2c(c1)-c1cc3[nH]c(cc4nc(cc5[nH]c(cc-2n1)c1ccccc51)-c1ccccc1-4)c1ccccc31 [ZnTBP (Pyridine)2, zinc tetrabenzoporphyrin]")
624

Read the next record carefully.
get_value(item= c1ccc(C2=C3N=C(C(c4ccccc4)=c4c5cc6ccccc6cc5c5[n]4[Pt][n]4c2c2cc6ccccc6cc2c4C(c2ccccc2)=C2N=C(C=5c4ccccc4)c4cc5ccccc5cc42)c2cc4ccccc4cc23)cc1 [PtTPhTNP] , readout=Q-band) returns 700
